Source of measurements: BindingDB's records for doi:10.7270/Q27D2X8F

# MEASUREMENT TARGET: 5-hydroxytryptamine receptor 1B (Homo sapiens, UniProt P28222)
# Sequence (P28222 whole entry): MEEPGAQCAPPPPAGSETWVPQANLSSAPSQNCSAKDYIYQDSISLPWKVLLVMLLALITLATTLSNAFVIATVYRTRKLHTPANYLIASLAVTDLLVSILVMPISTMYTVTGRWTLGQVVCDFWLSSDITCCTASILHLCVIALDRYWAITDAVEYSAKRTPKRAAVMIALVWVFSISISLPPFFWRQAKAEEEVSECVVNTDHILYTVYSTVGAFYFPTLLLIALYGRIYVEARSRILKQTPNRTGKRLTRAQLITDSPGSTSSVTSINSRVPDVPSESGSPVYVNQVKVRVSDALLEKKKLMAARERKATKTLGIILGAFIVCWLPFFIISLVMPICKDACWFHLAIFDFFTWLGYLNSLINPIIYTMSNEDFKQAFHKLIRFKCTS
# PROTOCOL DETAILS: The compound was evaluated for its ability to displace [3H]5-HT from 5-hydroxytryptamine 1B receptor in cellular brain membranes
ENDPOINT: IC50 (nM)

CCCN(CCCCN1C(=O)c2ccccc2C1=O)C1COc2cccc(OC)c2C1 (stereo not given) ... 400

a = CCCN(CCCCN1C(=O)c2ccccc2S1(=O)=O)C1COc2cccc(OC)c2C1 (stereo not given)
b = CCCN(CCCCN1C(=O)CC2(CCCC2)CC1=O)C1COc2cccc(OC)c2C1 (stereo not given)
c = CCCN(CCCCNC(=O)c1cc(=O)oc2c3c4c(cc12)CCCN4CCC3)C1COc2cccc(OC)c2C1 (stereo not given)
d = CCCN(CCCCNc1ccc([N+](=O)[O-])c2nonc12)C1COc2cccc(OC)c2C1 (stereo not given)
QUERY: Reorder: IC50, max to min. Form field (ranking): labels in requested order.
RESULT: b, a, d, c
